Reported Plant response rating, Foxtail, Giant values for the following molecules.
Tested on: giant foxtail (Setaria faberii)
TEST_PROTOCOL: Test B preemergence
Type: in vivo
STATED_CONDITIONS: preemergence; Rate 125 g/ha; scale of 0 to 100 where 0 is no effect and 100 is complete control; 13 to 15 days

{"MOLECULE": "CCC(CC)c1ccn(C2CCN(c3ccc(Br)c(OC)c3)C2=O)n1 (centres unmarked) [Compound 143]", "TARGET_OR_TEST_SYSTEM": "giant foxtail (Setaria faberii)", "Plant response rating, Foxtail, Giant": 100}
{"MOLECULE": "CC(C)(C)c1ccn(C2CCN(c3ccc(Cl)c(Br)c3)C2=O)n1 (centres unmarked) [Compound 56]", "TARGET_OR_TEST_SYSTEM": "giant foxtail (Setaria faberii)", "Plant response rating, Foxtail, Giant": 50}
{"MOLECULE": "CC(C)(C)c1ccn(C2CCN(c3cccc(C#N)c3)C2=O)n1 (centres unmarked) [Compound 104]", "TARGET_OR_TEST_SYSTEM": "giant foxtail (Setaria faberii)", "Plant response rating, Foxtail, Giant": 0}
{"MOLECULE": "CC(C)(C)c1ccn(C2CCN(c3cccc(I)c3)C2=O)n1 (centres unmarked) [Compound 88]", "TARGET_OR_TEST_SYSTEM": "giant foxtail (Setaria faberii)", "Plant response rating, Foxtail, Giant": 100}
{"MOLECULE": "CCCC(C)c1ccn(C2CCN(c3cccc(OCC)c3)C2=O)n1 (centres unmarked) [Compound 129]", "TARGET_OR_TEST_SYSTEM": "giant foxtail (Setaria faberii)", "Plant response rating, Foxtail, Giant": 100}
{"MOLECULE": "CCCC(C)c1ccn(C2OCN(c3cccc(C(F)(F)F)c3)C2=O)n1 (centres unmarked) [Compound 89]", "TARGET_OR_TEST_SYSTEM": "giant foxtail (Setaria faberii)", "Plant response rating, Foxtail, Giant": 90}
{"MOLECULE": "Cc1ccc(N2CCC(n3ccc(C(C)(C)C)n3)C2=O)cc1C(F)(F)F (centres unmarked) [Compound 47]", "TARGET_OR_TEST_SYSTEM": "giant foxtail (Setaria faberii)", "Plant response rating, Foxtail, Giant": 0}
{"MOLECULE": "CC(C)(C)c1ccn(C2OCN(c3cccc(OC(F)(F)F)c3)C2=O)n1 (centres unmarked) [Compound 66]", "TARGET_OR_TEST_SYSTEM": "giant foxtail (Setaria faberii)", "Plant response rating, Foxtail, Giant": 20}
{"MOLECULE": "CC1(c2ccn(C3SCN(c4cccc(OC(F)(F)F)c4)C3=O)n2)CC1 (centres unmarked) [Compound 63]", "TARGET_OR_TEST_SYSTEM": "giant foxtail (Setaria faberii)", "Plant response rating, Foxtail, Giant": 50}
{"MOLECULE": "CCOc1ccn(C2CCN(c3cccc(C(F)(F)F)c3)C2=O)n1 (centres unmarked) [Compound 61]", "TARGET_OR_TEST_SYSTEM": "giant foxtail (Setaria faberii)", "Plant response rating, Foxtail, Giant": 0}
{"MOLECULE": "CCC(C)c1ccn(C2CCN(c3ccc(C)c(OC)c3)C2=O)n1 (centres unmarked) [Compound 80]", "TARGET_OR_TEST_SYSTEM": "giant foxtail (Setaria faberii)", "Plant response rating, Foxtail, Giant": 100}
{"MOLECULE": "CCCOC(=O)c1cccc(N2CCC(n3ccc(C(C)(C)C)n3)C2=O)c1 (centres unmarked) [Compound 123]", "TARGET_OR_TEST_SYSTEM": "giant foxtail (Setaria faberii)", "Plant response rating, Foxtail, Giant": 0}
{"MOLECULE": "CC(C)(C)c1ccn(C2OCN(c3cccc(OC(F)F)c3)C2=O)n1 (centres unmarked) [Compound 133]", "TARGET_OR_TEST_SYSTEM": "giant foxtail (Setaria faberii)", "Plant response rating, Foxtail, Giant": 100}
{"MOLECULE": "Cc1ccc(N2CCC(n3ccc(C(C)(C)C)n3)C2=O)cc1OCCI (centres unmarked) [Compound 108]", "TARGET_OR_TEST_SYSTEM": "giant foxtail (Setaria faberii)", "Plant response rating, Foxtail, Giant": 0}
{"MOLECULE": "CC(C)c1cccc(N2CCC(n3ccc(C(C)(C)C)n3)C2=O)c1 (centres unmarked) [Compound 111]", "TARGET_OR_TEST_SYSTEM": "giant foxtail (Setaria faberii)", "Plant response rating, Foxtail, Giant": 0}
{"MOLECULE": "CC1(c2ccn(C3OCN(c4cccc(OC(F)(F)F)c4)C3=O)n2)CC1 (centres unmarked) [Compound 69]", "TARGET_OR_TEST_SYSTEM": "giant foxtail (Setaria faberii)", "Plant response rating, Foxtail, Giant": 0}
{"MOLECULE": "CC(C)(C)c1ccn(C2CCN(c3ccc(F)c(Br)c3)C2=O)n1 (centres unmarked) [Compound 75]", "TARGET_OR_TEST_SYSTEM": "giant foxtail (Setaria faberii)", "Plant response rating, Foxtail, Giant": 100}
{"MOLECULE": "Cc1c(F)cc(N2CCC(n3ccc(C(C)(C)C)n3)C2=O)cc1Br (centres unmarked) [Compound 78]", "TARGET_OR_TEST_SYSTEM": "giant foxtail (Setaria faberii)", "Plant response rating, Foxtail, Giant": 0}
{"MOLECULE": "CC(C)(C)c1ccn(C2CCN(c3ccc(F)c(C(F)(F)F)c3)C2=O)n1 (centres unmarked) [Compound 146]", "TARGET_OR_TEST_SYSTEM": "giant foxtail (Setaria faberii)", "Plant response rating, Foxtail, Giant": 100}
{"MOLECULE": "CCC(CC)c1ccn(C2CCN(c3cccc(OC)c3)C2=O)n1 (centres unmarked) [Compound 96]", "TARGET_OR_TEST_SYSTEM": "giant foxtail (Setaria faberii)", "Plant response rating, Foxtail, Giant": 100}
{"MOLECULE": "CCOc1cccc(N2CCC(n3ccc(C(C)(C)C)n3)C2=O)c1 (centres unmarked) [Compound 130]", "TARGET_OR_TEST_SYSTEM": "giant foxtail (Setaria faberii)", "Plant response rating, Foxtail, Giant": 100}
{"MOLECULE": "CC(C)(C)c1ccn(C2CCN(c3ccc(F)c(Cl)c3)C2=O)n1 (centres unmarked) [Compound 46]", "TARGET_OR_TEST_SYSTEM": "giant foxtail (Setaria faberii)", "Plant response rating, Foxtail, Giant": 0}
{"MOLECULE": "CCCOc1cc(N2CCC(n3ccc(C(C)(C)C)n3)C2=O)ccc1C (centres unmarked) [Compound 107]", "TARGET_OR_TEST_SYSTEM": "giant foxtail (Setaria faberii)", "Plant response rating, Foxtail, Giant": 0}
{"MOLECULE": "CCCC(C)c1ccn(C2CCN(c3cccc(OC)c3)C2=O)n1 (centres unmarked) [Compound 99]", "TARGET_OR_TEST_SYSTEM": "giant foxtail (Setaria faberii)", "Plant response rating, Foxtail, Giant": 0}
{"MOLECULE": "Cc1ccc(N2CCC(n3ccc(C(C)(C)C)n3)C2=O)cc1OC(F)F (centres unmarked) [Compound 79]", "TARGET_OR_TEST_SYSTEM": "giant foxtail (Setaria faberii)", "Plant response rating, Foxtail, Giant": 0}
{"MOLECULE": "COc1cc(N2CCC(n3ccc(C(C)C)n3)C2=O)ccc1Br (centres unmarked) [Compound 140]", "TARGET_OR_TEST_SYSTEM": "giant foxtail (Setaria faberii)", "Plant response rating, Foxtail, Giant": 100}
{"MOLECULE": "CC(C)(C)c1ccn(C2CCN(c3cccc(S(C)(=O)=O)c3)C2=O)n1 (centres unmarked) [Compound 102]", "TARGET_OR_TEST_SYSTEM": "giant foxtail (Setaria faberii)", "Plant response rating, Foxtail, Giant": 0}
{"MOLECULE": "COc1cc(N2CCC(n3ccc(C(C)C)n3)C2=O)ccc1C (centres unmarked) [Compound 85]", "TARGET_OR_TEST_SYSTEM": "giant foxtail (Setaria faberii)", "Plant response rating, Foxtail, Giant": 80}
{"MOLECULE": "CCC(C)Oc1cccc(N2CCC(n3ccc(C(C)(C)C)n3)C2=O)c1 (centres unmarked) [Compound 127]", "TARGET_OR_TEST_SYSTEM": "giant foxtail (Setaria faberii)", "Plant response rating, Foxtail, Giant": 70}
{"MOLECULE": "Cc1ccc(N2CCC(n3ccc(C(C)(C)C)n3)C2=O)cc1I (centres unmarked) [Compound 122]", "TARGET_OR_TEST_SYSTEM": "giant foxtail (Setaria faberii)", "Plant response rating, Foxtail, Giant": 20}
{"MOLECULE": "CCOC(=O)c1cccc(N2CCC(n3ccc(C(C)(C)C)n3)C2=O)c1 (centres unmarked) [Compound 72]", "TARGET_OR_TEST_SYSTEM": "giant foxtail (Setaria faberii)", "Plant response rating, Foxtail, Giant": 100}
{"MOLECULE": "CCCCC(C)c1ccn(C2OCN(c3cccc(OC(F)(F)F)c3)C2=O)n1 (centres unmarked) [Compound 97]", "TARGET_OR_TEST_SYSTEM": "giant foxtail (Setaria faberii)", "Plant response rating, Foxtail, Giant": 20}
